Values were extracted from patent US20260166039A1.

// reported IC50 per item
- target: Wee1 kinase domain (Homo sapiens, UniProt P30291)
- Construct: Wee1 kinase domain was purchased from Carna (catalog #05-177); purchased Carna 05-177
- Sequence (P30291 299-569 limits assumed): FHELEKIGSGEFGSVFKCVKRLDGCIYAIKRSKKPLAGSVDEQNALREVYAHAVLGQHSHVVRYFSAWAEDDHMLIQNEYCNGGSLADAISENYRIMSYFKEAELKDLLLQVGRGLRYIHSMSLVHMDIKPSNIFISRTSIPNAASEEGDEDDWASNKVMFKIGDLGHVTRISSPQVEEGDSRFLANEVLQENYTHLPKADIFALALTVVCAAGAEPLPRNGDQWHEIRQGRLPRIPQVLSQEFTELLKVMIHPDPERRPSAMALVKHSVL
- experimental.details: Wee1 Kinase Biochemical Assay (ADP-Glo)
- condition.context: class symbols; 1 nM Wee1 enzyme, 15 uM ATP, 4 hours at 25° C.

Worked examples follow.
C[C@H]1CCC(=O)N1c1cccc(N2c3nc(Nc4cnn(C5CCN(C)CC5)c4)ncc3C3(C)COC(C)(C)CC23)n1 (stereo in doubt) [Example 555] | 10 to 100 nM
CN1CC[C@H]2CN(c3ccc(Nc4ncc5c(n4)N(c4cccc(C(C)(C)O)n4)[C@@H]4CC(C)(C)OC[C@]54C)cc3)C[C@H]21 (single isomer, unassigned) | < 10 nM
Cc1cc(Nc2ncc3c(n2)N(c2cccc(N4CCOC4=O)n2)[C@@H]2CC(C)(C)OC[C@]32C)ccc1N1C[C@@H]2C[C@H]1CN2C | < 10 nM
CN1C[C@H]2C[C@@H]1CN2c1ccc(Nc2ncc3c(n2)N(c2cccc(C(C)(C)O)n2)[C@H]2CC(C)(C)OC[C@@]32C)cc1Cl (single isomer, unassigned) | 10 to 100 nM

Return IC50 measured with Wee1 kinase domain (Homo sapiens, UniProt P30291) given this molecule: CN1C[C@@H]2C[C@H]1CN2c1ccc(Nc2ncc3c(n2)N(c2cccc(C(C)(C)O)n2)[C@H]2CC(C)(C)OC[C@@]32C)cc1 (single isomer, unassigned)
100 to 1000 nM
